Cited source for all entries: ChEMBL document CHEMBL3526049

Assay: Oral bioavailability in MRP2 knockout Sprague-Dawley rat at 5 mg/kg by LC-MS/MS analysis
Type: ADME, organism-based
Conditions: in vivo
readout.type: bioavailability
Entry format: amount then unit.

Value of measured bioavailability for the entry CC(=O)O[C@H]1C(=O)[C@@]2(C)[C@H]([C@H](OC(=O)c3ccccc3)[C@]3(O)C[C@H](OC(=O)[C@H](O)[C@@H](NC(=O)c4ccccc4)c4ccccc4)C(C)=C1C3(C)C)[C@]1(OC(C)=O)CO[C@@H]1C[C@@H]2O [PACLITAXEL] : 27%

----------
Assay: Half life in MRP2 knockout Sprague-Dawley rat at 5 mg/kg, iv by LC-MS/MS analysis
Type: ADME, organism-based
Set-up: dose 5 mg/kg, route intravenous
Settings: in vivo
readout.type: half-life (h)
Return type: number; implicit unit h.

Value of measured half-life for the entry O=C(O)c1cc(/N=N/c2ccc(S(=O)(=O)Nc3ccccn3)cc2)ccc1O : 4.3

----------
Assay: AUC (infinity) in MRP2-deficient Wistar rat at 20 mg/kg, po by LC-MS/MS analysis
Type: ADME, organism-based
Parameters: time infinity, dose 20 mg/kg, route oral
Conditions: plasma
readout.type: AUC(0-inf) (ng·h/mL)
Return type: number; implicit unit ng·h/mL.

Value of measured AUC(0-inf) for the entry Nc1ccc(S(=O)(=O)Nc2ccccn2)cc1 : 15400

----------
Assay: Clearance in MDR1A knockout Sprague-Dawley rat at 1 mg/kg, iv by LC-MS/MS analysis
Conditions: in vivo
readout.type: clearance (mL/min/kg)
Return type: number; implicit unit mL/min/kg.

Value of measured clearance for the entry CC(=O)O[C@H]1C(=O)[C@@]2(C)[C@H]([C@H](OC(=O)c3ccccc3)[C@]3(O)C[C@H](OC(=O)[C@H](O)[C@@H](NC(=O)c4ccccc4)c4ccccc4)C(C)=C1C3(C)C)[C@]1(OC(C)=O)CO[C@@H]1C[C@@H]2O : 66.7

----------
Assay: Cmax in wild-type Wistar rat at 20 mg/kg, po by LC-MS/MS analysis
Type: ADME, organism-based
Set-up: dose 20 mg/kg, route oral
Details: in vivo
readout.type: Cmax (µg/mL)
Return type: number; implicit unit µg/mL.

Value of measured Cmax for the entry Nc1ccc(S(=O)(=O)Nc2ccccn2)cc1 : 4.32

----------
Assay: Drug excretion in bile duct-cannulated BCRP knockout Sprague-Dawley rat feces at 1 mg/kg, iv up to 24 hrs
Type: ADME, organism-based
Parameters: dose 1 mg/kg, route intravenous
Settings: faeces, read-out: Drug excretion
readout.type: dose excreted at 24 h (%)
Return type: number; implicit unit %.

Value of measured dose excreted at 24 h for the entry CC(=O)O[C@H]1C(=O)[C@@]2(C)[C@H]([C@H](OC(=O)c3ccccc3)[C@]3(O)C[C@H](OC(=O)[C@H](O)[C@@H](NC(=O)c4ccccc4)c4ccccc4)C(C)=C1C3(C)C)[C@]1(OC(C)=O)CO[C@@H]1C[C@@H]2O [PACLITAXEL] : 1

----------
Test: Drug excretion in bile duct-cannulated wild-type Sprague-Dawley rat feces at 1 mg/kg, iv up to 24 hrs
Type: ADME, organism-based
Parameters: dose 1 mg/kg, route intravenous
Conditions: faeces, read-out: Drug excretion
readout.type: dose excreted at 24 h (%)
Return type: number; implicit unit %.

Value of measured dose excreted at 24 h for the entry CC(=O)O[C@H]1C(=O)[C@@]2(C)[C@H]([C@H](OC(=O)c3ccccc3)[C@]3(O)C[C@H](OC(=O)[C@H](O)[C@@H](NC(=O)c4ccccc4)c4ccccc4)C(C)=C1C3(C)C)[C@]1(OC(C)=O)CO[C@@H]1C[C@@H]2O [PACLITAXEL] : 2.3
